experimental_target: hcTnI (human cardiac troponin I) (Homo sapiens, UniProt P19429 P19429:2-210)
Sequence (P19429 2-210, one chain of several): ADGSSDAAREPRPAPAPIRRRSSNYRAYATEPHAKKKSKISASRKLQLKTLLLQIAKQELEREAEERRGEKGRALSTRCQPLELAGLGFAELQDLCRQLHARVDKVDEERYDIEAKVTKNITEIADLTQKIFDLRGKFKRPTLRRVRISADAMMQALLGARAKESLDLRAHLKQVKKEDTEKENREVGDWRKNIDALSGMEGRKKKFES
assay_comment: antibody luminescence assay
quantity_name: Kd (nM)
Use nM as the unit, but write only the number.

Noted for cTni6 (ssDNA) DNA: GGCAGGAAGACAAACACGGGGCGGCCGAAACAATGCGTTTCGGACCCAGCAACTCGTGGTCTGTGGTGCTGT : its Kd reads 49.4

More entries:
Lookup result for cTni3 (ssDNA) DNA: GGCAGGAAGACAAACAGGGGTACTTAGCATAGGAGTTTTGTTCTGTCGCACCTCGTTGGTCTGTGGTGCTGT ; measured Kd: 2.3
